Target: T1, Recombinant human CD123 SP2 ECD protein (human, UniProt P26951 101-303)
T1 construct: also called rhCD123 SP2; CD123 ECD SP2
T1 sequence: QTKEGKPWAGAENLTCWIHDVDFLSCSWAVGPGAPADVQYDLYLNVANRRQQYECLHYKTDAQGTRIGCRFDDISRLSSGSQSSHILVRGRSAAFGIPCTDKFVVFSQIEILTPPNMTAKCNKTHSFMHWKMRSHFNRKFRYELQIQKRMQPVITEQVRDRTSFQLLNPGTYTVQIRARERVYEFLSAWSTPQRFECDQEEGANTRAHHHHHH
Test: SPR ProteOn, captured mAb
assayMetric: koff (s⁻¹)
Numbers only here, please. The scale is s⁻¹.

So what does the record say about koff for I3RB18 (antibody, IgG1, V domains shown, IgG1; also called 13RB18; mAb I3RB18) VH: EVQLVQSGAEVKKPGESLKISCKGSGYSFTSYWISWVRQMPGKGLEWMGIIDPSDSDTRYSPSFQGQVTISADKSISTAYLQWSSLKASDTAMYYCARGDGSTDLDYWGQGTLVTVSS VL: EIVLTQSPGTLSLSPGERATLSCRASQSVSSSYLAWYQQKPGQAPRLLIYGASSRATGIPDRFSGSGSGTDFTLTISRLEPEDFAVYYCQQDYGFPWTFGQGTKVEIK ?
0.000978

Request: I3RB30 (antibody, IgG1, V domains shown, IgG1; also called 13RB30) VH: QVQLVQSGAEVKKPGSSVKVSCKASGGTFSSYAISWVRQAPGQGLEWMGWIIPIFGTANYAQKFQGRVTITADESTSTAYMELSSLRSEDTAVYYCARLVYSSDFDYWGQGTLVTVSS VL: EIVLTQSPATLSLSPGERATLSCRASQSVANWLAWYQQKPGQAPRLLIYYASNRATGIPARFSGSGSGTDFTLTISSLEPEDFAVYYCQQYDGWPRTFGQGTKVEIK
0.048

// repeat for I3RB19 (antibody, IgG1, V domains shown, IgG1; also called 13RB19) VH: EVQLLESGGGLVQPGGSLRLSCAASGFTFSNYAMSWVRQAPGKGLEWVSGIRGNGSSTYYADSVKGRFTISRDNSKNTLYLQMNSLRAEDTAVYYCAKGGPIGARFPDYLDYWGQGTLVTVSS VL: DIQMTQSPSSLSASVGDRVTITCRASQSIGDFLNWYQQKPGKAPKLLIYYASSLQSGVPSRFSGSGSGTDFTLTISSLQPEDFATYYCQQSYSTPLTFGQGTKVEIK and report
0.0161

Query I3RB2 (antibody, IgG1, V domains shown, IgG1; also called I3RB02; 13RB2) VH: EVQLLESGGGLVQPGGSLRLSCAASGFTFSGYWMHWVRQAPGKGLEWVSAIRSDGSSKYYADSVKGRFTISRDNSKNTLYLQMNSLRAEDTAVYYCAKDGVIEDTFDYWGQGTLVTVSS VL: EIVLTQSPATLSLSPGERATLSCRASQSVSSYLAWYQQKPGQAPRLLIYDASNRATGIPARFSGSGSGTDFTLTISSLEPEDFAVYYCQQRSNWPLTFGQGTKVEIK next
0.00335
